Taken from paper PMC5540273.

tested on: AURKA; conditions: concentration: 1 μM,replicates: in singlicate; n = 1;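 also: KINOMEscan kinase panel screen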
Output Criterion met for %Inh not less than 6%; output Criterion not met otherwise.

CCN(CC)CCOc1ccc(Nc2ncc3cc(-c4c(Cl)cccc4Cl)c(=O)n(C)c3n2)cc1 [SB-601273]
Criterion met
C[C@H]1Oc2cc(cnc2N)-c2c(nn(C)c2C#N)CN(C)C(=O)c2ccc(F)cc21
Criterion met

Form field: %Inh at least 6%? Entry: C[C@@H](Oc1cc(-c2cnn(C3CCNCC3)c2)cnc1N)c1c(Cl)ccc(F)c1Cl
Criterion met

Next: Cl.Oc1cc(-c2nc(-c3ccccc3)[nH]c2-c2ccncc2)ccc1Cl [SB-386023]
Criterion met

What do you get for CCN(CC)CCCCNc1ncc2cc(-c3c(Cl)cccc3Cl)c(NC(=O)NC(C)(C)C)nc2n1 ?
Criterion met

Likewise for Cc1ccc(-n2nc(C(C)(C)C)cc2NC(=O)Nc2ccc(OCCN3CCOCC3)c3ccccc23)cc1 [GW839464] ?
Criterion not met

Same read-out for Cc1occc1-c1nc(N)c(OC[C@@H](N)Cc2c[nH]c3ccccc23)cc1-c1cc2c(C)n[nH]c2cn1 [GSK1660450] ?
Criterion not met
